Cited source: ChEMBL document CHEMBL3102736

Tested on: DNA
test-method-notes: Binding affinity to calf thymus DNA at 10^-4 M by fluorescence assay
Format: nucleic-acid assay
cond: Bos taurus
Active and inactive are the calls of the source. The calls are words filed in the database; no cut-off is given here.
measured-attribute: Activity

Observe how each entry below is paired with its result.
> print(dat)
                            chemical.smiles  measured.attribute  result
1  CCCCN/C(N)=N/c1cc(C)c2[nH]c3ccc(Br)cc3c2c1C            Activity  Active
2    CCCN/C(N)=N/c1cc(C)c2[nH]c3ccccc3c2c1C            Activity  Active
3  Cc1cc(/N=C(\N)NC(C)(C)C)c(C)c2c1[nH]c1ccc(Br)cc12            Activity  Active
4  CCC(CC)N/C(N)=N/c1cc(C)c2[nH]c3ccc(Br)cc3c2c1C            Activity  Active

Could you now consider this next molecule?
Lookup: Please tell me: Activity of `CCCCN/C(N)=N/c1cc(C)c2[nH]c3ccccc3c2c1C` , system DNA?
Found: Active
